Assay: inhibitors of VEEV TC-83 cytopathic effect, confirmation, Vero cells (AID 588727)
Conditions: VEEV TC-83 cytopathic effect inhibition, at 20 µM; stronger effect = higher value unless noted
Out of some 350,000 compounds screened, about 450 (0.13%) were called active. The list is a sample of the results. Potency and affinity values are given separately.
ASSAY_METRIC: inhibition

Consider the following illustrative entries.
MOLECULE	inhibition
Cc1cccc(C(=O)NC(=S)NNC(=O)COc2c(C)cccc2C)c1	1.29% (inactive)
O=C(Cc1ccc(Br)cc1)NC1CCCc2ccccc21 (stereo unspecified)	3.28% (inactive)
CCCCN(C(=O)CSc1nc(CCC)cc(=O)[nH]1)c1c(N)n(Cc2ccccc2)c(=O)[nH]c1=O	0.91% (inactive)
COc1ccccc1C(=O)NNC(=S)NC(=O)c1sc2ccccc2c1Cl	4.48% (inactive)
COc1ccc(C2c3[nH]c4ccccc4c3CCN2C(=O)c2cn3ccccc3n2)c(F)c1 (stereo unspecified)	8.94% (inactive)

[in] Report inhibition for COc1ccc(/C=C/C(=O)c2ccc3ccccc3c2O)cc1CN1CCOCC1 please.
[out] 2% (inactive)

[in] Likewise for Cc1ccc(/C=N/n2c(-c3cccnc3)n[nH]c2=S)o1 ?
[out] 0.4% (inactive)

###

Test: inhibitors of VEEV TC-83 cytopathic effect, confirmation, Vero cells (AID 588727)
Details: VEEV TC-83 cytopathic effect inhibition, at 20 µM; stronger effect = higher value unless noted
The whole screen tested about 350,000 compounds, of which about 450 (0.13%) were called active. Only a sample is shown. Entries with a potency or affinity are not part of this list.
Entries and their inhibition values follow.

COMPOUND	ASSAY_METRIC	VALUE_OBSERVED
CCC(C)(C)NC(=S)Nc1ccc(-c2nc3ccc(C)cc3s2)cc1	inhibition	1.78% (inactive)

[in] Field request: inhibition | item: O=C(N/N=C/c1cccnc1)c1ccc(NC(=O)c2ccccc2Cl)cc1
[out] 1.2% (inactive)

[in] How about COc1ccc(C(=O)Nc2ccccc2C(=O)N2CCCCCC2)cc1OC ?
[out] 5.61% (inactive)

[in] Same again, this time with Cc1cccc2cc(CN(CCN(C)C)C(=S)NCc3ccco3)c(=O)[nH]c12
[out] 6.74% (inactive)

[in] And then O=C(NNC(=O)c1ccc2ccccc2c1O)NC1CCCCC1 , what is it?
[out] 2.22% (inactive)

[in] And the next one, Cc1c(C(=O)NCc2cccs2)oc2ccccc12 ?
[out] 1.87% (inactive)

[in] Also check CNC(=S)Nc1ccc(-c2nc3ccc(C)cc3s2)cc1
[out] 5.72% (inactive)

[in] Request: O=C(Nc1ccccc1Cl)OC1CCCCC1
[out] 0.52% (inactive)

[in] Also, CC12CC[C@H]3[C@@H](CCC4(O)C[C@H](O)CCC34/C=N/NC(=O)c3ccc(O)cc3)C1(O)CCC2C1=CC(=O)OC1 (stereo partly drawn) please.
[out] 0.73% (inactive)

[in] Repeat with CCOc1ccc(CCNC(=O)CCS(=O)(=O)c2ccc(OC)cc2)cc1OCC
[out] 0.09% (inactive)

[in] Then what about the compound COCCNC(=O)/C(C#N)=C/C=C/c1ccccc1[N+](=O)[O-] ?
[out] 55.2% (inactive)

[in] Would you kindly repeat that for Cc1c(OCC(=O)N(C)C)ccc2c(-c3ccccc3)cc(=O)oc12 ?
[out] 2.42% (inactive)

[in] Another: O=C(CSc1ncn[nH]1)N/N=C/c1ccc(Br)cc1
[out] 0.58% (inactive)

[in] Okay, and Cn1c(C(=O)NCC2CCCO2)cc2oc3ccccc3c21 (stereo not drawn) ?
[out] 6.64% (inactive)

[in] Record: Cc1c(CCO)c(=O)[nH]n1C(=O)c1ccc(F)cc1
[out] 0.71% (inactive)
